- assay-target: D(2) dopamine receptor (Homo sapiens) (UniProt P14416)
- Sequence (P14416 whole entry, looked up): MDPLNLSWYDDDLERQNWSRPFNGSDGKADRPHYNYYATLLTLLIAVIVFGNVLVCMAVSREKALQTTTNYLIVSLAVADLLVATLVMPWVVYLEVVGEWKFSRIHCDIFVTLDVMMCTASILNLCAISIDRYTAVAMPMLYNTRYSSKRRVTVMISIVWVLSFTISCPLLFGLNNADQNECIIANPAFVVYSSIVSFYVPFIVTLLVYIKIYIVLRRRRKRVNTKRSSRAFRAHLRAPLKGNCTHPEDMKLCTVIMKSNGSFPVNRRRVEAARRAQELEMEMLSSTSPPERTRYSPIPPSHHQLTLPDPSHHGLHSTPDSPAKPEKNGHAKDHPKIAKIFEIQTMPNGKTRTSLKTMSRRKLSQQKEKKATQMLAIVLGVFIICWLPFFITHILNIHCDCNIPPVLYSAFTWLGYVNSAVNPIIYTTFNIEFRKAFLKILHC
- assay-remarks: Dopamine D2 receptor (DRD2) small molecule agonists, cell-based qHTS assay (AID 1963594); note: % is set by controls: 0 for no effect and ±100 for the full control effect; nearly all actives have a fitted effect of over 35% in size
- measurement-context: HEK293-DRD2 cAMP HTRF, agonist mode, 30 min; series mostly up to 92.4 µM
Records with an inconclusive call do not appear. Activity calls are given as the source filed them. Calls come from the whole dose curve.
measured-property: activation

Example compounds with recorded activation:
• O=S(O)(O)=S = -2.24% [at 8.39 µM] (inactive)
• CCCCCCCCCCCCc1ccc(O)cc1 = inactive
• O=C(O)c1c(Cl)cccc1Cl = inactive
• C/C=C(/C(=C/C)c1ccc(O)cc1)c1ccc(O)cc1 = inactive
• C=COCC1CCC(COC=C)CC1 (configuration not stated) = inactive

Batch: activation for all items listed.
1. CCCCN(CCCC)C(=O)N(CCCC)CCCC
2. CCOC(CN1CCN(CC(C)C(=O)c2ccccc2)CC1)c1ccccc1 (configuration not stated)

[out]
inactive
-24.3% [at 19 µM] (inactive)

###

- assay-target: Muscarinic acetylcholine receptor M1 (Homo sapiens)
- assay-remarks: Cholinergic receptor muscarinic 1 (CHRM1) small molecule antagonists, cell-based qHTS assay (AID 1963588); note: % is set by controls: 0 for no effect and ±100 for the full control effect; nearly all actives have a fitted effect of over 40% in size
- measurement-context: CHRM1-CHO antagonist mode, calcium flux fluorescence; series mostly up to 61.5 µM
Inconclusive results are not listed. Calls of active or inactive are those of the source. The call rests on the fitted dose curve.
Returns: one label drawn from active, inactive

Reference set (5 entries):
* NS(=O)(=O)c1cc2c(cc1C(F)(F)F)NCNS2(=O)=O | inactive
* O=C(O)c1cccc(O)c1 | inactive
* O=CN1CCCCC1 | inactive
* Cc1ccc(NC(N)=O)cc1 | inactive
* Cn1nnc2c(C(N)=O)ncn2c1=O | inactive

[in] What is the recorded call for this compound in the test? `O=C(c1ccc(O)cc1)c1ccc(Cl)cc1`
[out] inactive

[in] Ok, now CCOC(=O)CC(C)O (centres undefined)
[out] inactive

[in] Ok, now `Nc1c(N=Nc2ccc(-c3ccc(N=Nc4cc(S(=O)(=O)O)c5ccccc5c4N)cc3)cc2)cc(S(=O)(=O)O)c2ccccc12`
[out] inactive

[in] Ok, now `C=COCC(C)C`
[out] inactive

###

- assay-target: Gonadotropin-releasing hormone receptor (Homo sapiens)
- assay-remarks: Human gonadotropin-releasing hormone receptor (GnRHR) small molecule agonists, calcium flux assay in GnRHR-HEK293 cells (AID 1920063); note: % is set by controls: 0 for no effect and ±100 for the full control effect; nearly all actives have a fitted effect of over 35% in size
- measurement-context: calcium flux fluorescence, agonist mode; series mostly up to 57.6 µM
The source made the active and inactive calls. The call rests on the fitted dose curve.
measured-property: activity change

Example molecules with recorded activity change:
* CCOC(=O)CS | inactive
* O=C(O)/C=C/c1ccc(/C=C/C(=O)O)cc1 | inactive
* CO[Si](OC)(OC)OC | inactive
* COc1ccc(OC)c(NC(=O)CC(C)=O)c1 | inactive
* O=[N+]([O-])c1cccc(S(=O)(=O)NCCNS(=O)(=O)c2cccc([N+](=O)[O-])c2)c1 | inactive

Batch: activity change for all items listed.
1. CC[N+](C)(CC)CCOC(=O)C(O)(c1ccccc1)C1CCCCC1 (centres undefined)
2. CCCCCCCC[P+](CCCCCCCC)(CCCCCCCC)CCCCCCCC
3. ClC1=C(Cl)C1(Cl)Cl
4. CC(C)CCCCCCc1ccc(OCCOCCO)cc1
5. CCCNC(C)C(=O)Nc1ccccc1C (centres undefined)
6. Brc1ccccn1

[out]
inactive
inactive
inactive
inactive
inactive
inactive
